Where do the numbers come from? From PubChem BioAssay (NCI).

test: NCI Yeast Anticancer Drug Screen. Data for the bub3 strain (AID 167); details: S. cerevisiae bub3 mutant strain, at 50.0 µM
Compounds without any hit were thinned out: in the full panel of roughly 79,000, 15% have a hit. Calls of active or inactive are those of the source. No stated cut-off is given here; in the data, active means growth inhibition above about 70%; inactive means the rest.
Write down one outcome, taken from Y (active), N (inactive)

Please review the following examples before continuing.
# compound, assigned.category
measured = [
    ("c1cc2c3c(c1)[I+]c1cccc(c1-3)[I+]2", "N"),
    ("CC(C)(C)c1ccc(-c2nnc(SCc3ccc(Cl)cc3)n2-c2cccc(C(F)(F)F)c2)cc1", "N"),
]

Inquiry: Tell me the recorded outcome of this test for `CC1(C)COC(C)(C(=O)O)OC1` .
Reply text: N

Inquiry: Tell me the recorded outcome of this test for `CN(C)N=Nc1ccc2[nH]c(=O)[nH]c2c1` .
Reply text: Y

Inquiry: Tell me the recorded outcome of this test for `O=c1cccccc1O.O=c1cccccc1O.O=c1cccccc1O.[Ru]` .
Reply text: N

Inquiry: Tell me the recorded outcome of this test for `Nc1ccc2c(c1)C(=O)c1ccccc1-2` .
Reply text: N

Inquiry: Tell me the recorded outcome of this test for `C1CCC(CC[N+]23CC[N+](CCC4CCCC4)(CC2)C3)C1` .
Reply text: N

Inquiry: Tell me the recorded outcome of this test for `CCCCCCCCCCCCCCOCCS(=O)(=O)O` .
Reply text: N

Inquiry: Tell me the recorded outcome of this test for Oc1ccc(C2(c3ccc(O)c(Cl)c3)CC3CCC2C3)cc1Cl (stereo not drawn) .
Reply text: Y
